Method Notes: yeast display, Sf9 membrane polyspecificity reagent, FACS + sequencing; frameworks hold sequencing errors
Measurement Kind: polyreactivity (PSR sort gate)

| Sequence Entry | polyreactivity (PSR sort gate) |
| --- | --- |
| QVQLVESGGGLVQAGGSLRLSCAASGSTFRRNAMGWYRQAPGKERELVAAISSSGGSTYYADSVKGRFTISRDNAKNTVFLQMNSLKPEDTAVYYCAAGYPTLRGYYYWGQGTQVTVSS | low polyreactivity |
| QVQLVESGGGLVQAGGSLRLSCAASGFTFPSYAMGWYRQAPGKERELVAAISSRGGSTYYADSVKGRFTISRDNAKNTVYLQMNSLKPEDTAVYYCNRLQVYSYYPYYPWYNYWGQGTQVTVSS | high polyreactivity |
| QVQLVESGGGLVQAGGSLRLSCAASGYIIFTNAMGWYRQAPGKERQLVAAISTIDGSTYYADSVKGRFTISRDNAKNTVYLQMNSLKPEDTAVYYCATDTPFISSLAYDYWGQGTQVTVSS | low polyreactivity |
| QVQLVESGGGLVQAGGSLRLTCAASGSTFSKNGMGWYRQAPGKEREFVAAISGSGGSTYYADSVRGRFTISRDNAKNTVYLQMNSLKPEDTAVYYCAARRVWYYISAYGYWGQGTQVTVSS | high polyreactivity |
| QVQLVESGGGLVQAGGSLRLSCAASGITFKGYTMGWYRQAPGKEREFVAAISWGGGRTYYADSVKGRFTISRDNAKNTVYLQMNSLKPEDTAVYYCNGAPYTRALQGEFDYWGQGTQVTVSS | high polyreactivity |

Challenge: May I ask what polyreactivity (PSR sort gate) has been recorded for QLQLVETGGGLVQAGGSLRLSCAATGSTFQGYPMGWYRQAPGKDRELVAAISWNGGSTYYADSVKGRFTISRDNAKNTVYLQMNSLKPEDTAVYYCAAYSFAYSYNYWGQGTQVTVSS ?
Response given: high polyreactivity

Challenge: Try this sequence too: QVQLQESGGGLVQVGGSLRLTCAASGTIFIYGFLGWNRQAPGKERELVASINLGGITNYADSVKGRFTISRDNANNTVYLQMISLKPEDTAVYFCAAYFVTGQNYGSWGQGTQVTVSS
Response given: low polyreactivity

Challenge: Now the sequence QVQLVESGGGLVQAGGSLRLSCAASGSIFPQYAMGWYRQAPGKERELVAGISGSGGGTYYADSVKGRFTISRDNAKNTVYLQMNSLKPEDTAVYDCYDYWGQGTQVTVSS
Response given: low polyreactivity

Challenge: Same question for QVQLVESGGGLVQAGGSLRLSCAASGIIFYDNAMGWYRQAPGKERELVATINYSGDSTYYADSVKGRFTISRDNAKNTVYLQMNSLKPADTAVYYCATDGAWQYYWVYSHEYWGQGTQVTVSS please.
Response given: low polyreactivity

Challenge: Same for QVQLVESGGGLVQAGGSLRLSCAASGNIFRNNAMGWYRQAPGKERELVAAISRGGSTYYADSVKGRFTISRDNAKNTVYLQMNSLKPEDTAVYYCNKYSSRAYNYWGQGTQVTVSS
Response given: high polyreactivity

Challenge: Same read-out for QVKLVESGGGLVQAGGSLRLSCAASGRTFGSYAMGRYRQAPGKERELVAAITTDASTNYADSVKGRFTISRDNAKNTIYLQMNSLKPEDTAVYYCAKRNRTYYGYWGQGTQVTVSS ?
Response given: low polyreactivity
